System: HCV 1b_Huh-Luc/Neo-ET cell line persistently expressing a bicistronic genotype 1b replicon in Huh 7 cells
Test: HCV replicon assay (luciferase readout, 72 h)
Assay type: cell-based, HCV genotype 1b
Conditions: Hepatitis C virus, Huh-7, 72 h, read-out: Inhibition of HCV genotype 1b
// reported EC50 per item

{"columns": ["compound", "EC50"],
 "data": [
  ["C[C@H](NC(=O)[C@@H]1CCCN1C(=O)[C@H](NC(=O)C1CC1)c1ccccc1)c1ccc(C#Cc2ccc(-c3cnc([C@@H]4CCCN4C(=O)[C@H](NC(=O)C4CC4)c4ccccc4)[nH]3)cc2)cc1", "< 1 nM"],
  ["COC(=O)N[C@H](C(=O)N1CCC[C@H]1c1ncc(-c2ccc(C#Cc3ccc(-c4cnc([C@@H]5CCCN5C(=O)[C@@H](NC(=O)OC)C(C)C)[nH]4)cn3)cc2)[nH]1)C(C)C", "< 1 nM"],
  ["COC(=O)N[C@@H](C(=O)N1CCC[C@H]1c1ncc(-c2ccc(C#Cc3ccc(-c4cnc([C@@H]5CCCN5C(=O)c5nccn5C)[nH]4)cc3)cc2)[nH]1)c1ccccc1", "< 1 nM"],
  ["COC(=O)N[C@@H](C(=O)N1CCC[C@H]1c1ncc(-c2ccc(C#Cc3ccc(-c4cnc([C@@H]5CCCN5C(=O)Cc5cccnc5)[nH]4)cc3)cc2)[nH]1)c1ccccc1", "< 1 nM"]
]}

Please find the next molecule below.
Qu. Report measured EC50; entry is `COC(=O)N[C@@H](C(=O)N1CCC[C@H]1c1ncc(-c2ccc(C#Cc3ccc4nc([C@@H]5CCCN5C(=O)[C@H](NC(=O)OC)C(C)C)[nH]c4c3)cc2)[nH]1)C(C)C`
Ans. 10 to 999 nM
